Where these numbers come from: patent US20040102364A1

Molecular target: rat SST-R3 (Rattus norvegicus, UniProt P30936)
Sequence (P30936 whole entry): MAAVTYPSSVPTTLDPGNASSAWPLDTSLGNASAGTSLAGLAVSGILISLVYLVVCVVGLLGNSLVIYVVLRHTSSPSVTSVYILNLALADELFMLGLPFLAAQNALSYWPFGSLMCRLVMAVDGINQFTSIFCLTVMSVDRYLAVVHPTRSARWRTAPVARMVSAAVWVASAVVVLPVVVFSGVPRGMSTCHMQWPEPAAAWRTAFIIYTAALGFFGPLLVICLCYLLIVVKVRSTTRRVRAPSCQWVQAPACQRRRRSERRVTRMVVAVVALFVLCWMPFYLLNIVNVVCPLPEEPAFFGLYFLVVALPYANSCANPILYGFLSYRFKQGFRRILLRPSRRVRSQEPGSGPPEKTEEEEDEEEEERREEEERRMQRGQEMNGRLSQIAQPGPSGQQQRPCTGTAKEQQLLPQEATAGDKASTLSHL
Assay: Subtype selectivity binding, rat SST-R3
Settings: rat SST-R3; read-out: Selectivity: IC50, nM, rat SST-R-3
Recorded endpoint: IC50 (nM)
Report as a plain number; the unit nM is understood.

Worked cases, IC50 given:
| Substance | IC50, nM |
| --- | --- |
| ReO-MA-Dpr(Gly)-βAla-Dab*-Phe-Trp-(D)Trp-Lys-Thr-Phe-GlyC3*-NH2 [PTR 3399] | 103 |
| ReO-MA-Gly-Gly-Gly-6-aminohexanoic acid-Dab*-Phe-Trp-(D)Trp-Lys-Thr-Phe-GlyC3*-NH2 [PTR 3401] | 110 |

Input line: # get_value(readout= IC50, system= rat SST-R3 (Rattus norvegicus, UniProt P30936)) for ReO-MA-Dpr(Gly)-Gly-Dab*-Phe-Trp-(D)Trp-Lys-Thr-Phe-GlyC3*-NH2 [ReO-3397]
Output line: 76

###

Biological target: SST-R2 (Homo sapiens, UniProt P30874)
Sequence (P30874 whole entry): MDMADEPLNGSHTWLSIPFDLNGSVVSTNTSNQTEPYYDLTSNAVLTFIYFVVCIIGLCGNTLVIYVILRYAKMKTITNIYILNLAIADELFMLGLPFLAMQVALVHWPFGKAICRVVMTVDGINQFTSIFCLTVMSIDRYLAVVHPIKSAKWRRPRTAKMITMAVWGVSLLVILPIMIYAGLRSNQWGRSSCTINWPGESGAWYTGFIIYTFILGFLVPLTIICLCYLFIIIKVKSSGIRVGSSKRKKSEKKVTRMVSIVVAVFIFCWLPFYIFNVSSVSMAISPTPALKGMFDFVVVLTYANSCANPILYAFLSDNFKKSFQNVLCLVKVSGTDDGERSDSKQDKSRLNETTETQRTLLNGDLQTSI
Test: Inhibition of SRIF binding to SST-R2 (species not stated)
Settings: 100 nM; SST-R2
In plain terms, low SRIF Inhibited (%) 100 nM, meaning strictly below 50%, gives true, and everything else gives false.

Examples from the recorded data:
| Substance | Measured target | Qualitative label |
| --- | --- | --- |
| In-DTPA-GABA-Phe(C3**)-Cys*-Phe-(D)Trp-Lys-Thr-Cys*-Phe(N3 **)-NH2 [PTR 3351] | SST-R2 (Homo sapiens, UniProt P30874) | false |
| In-DTPA-3-aminomethylbenzoic acid-Phe(C3**)-Cys*-Phe-(D)Trp-Lys-Thr-Cys*-Phe(N3**)-NH2 [PTR 3355] | SST-R2 (Homo sapiens, UniProt P30874) | true |
| In-DTPA-b-Ala-Phe(C3**)-Cys*-Phe-(D)Trp-Lys-Thr-Cys*-Phe(N3**)-NH2 [PTR 3349] | SST-R2 (Homo sapiens, UniProt P30874) | false |

Input line: Quick check: SRIF Inhibited (%) 100 nM of In-DTPA-5-aminopentanoic acid-Phe(C3**)-Cys*-Phe-(D)Trp-Lys-Thr-Cys*-Phe(N3**)-NH2 [PTR 3353] under 50%?
Output line: false

###

The entries below come with measured inhibition at 0.1 µM values attached.
Target: SST-R2 (Homo sapiens, UniProt P30874)
Test: Inhibition of SRIF binding to SST-R2 (species not stated)
Details: read-out: IC50 Screen SRIF Inhibited (%) 100 nM
Protocol: The SST analogs were tested for their potency in inhibition of the binding of ^125I-Tyr^11-SRIF (based on the method described by Raynor et. al., Molecular Pharmacology 43: 838, 1993) to membrane preparations expressing the transmembranal SST receptors (SST-R1, 2, 3, 4 or 5). […] The binding reactions were filtered, the filters were washed and the bound radioactivity was counted in β counter after addition of scintillation solution. […]
Report as a plain number; the unit % is understood.

Worked cases, inhibition at 0.1 µM given:
| Smiles representation | Number |
| --- | --- |
| C[C@@H](O)[C@@H]1NC(=O)[C@H](CCCCN)NC(=O)[C@@H](Cc2c[nH]c3ccccc23)NC(=O)[C@H](Cc2c[nH]c3ccccc23)NC(=O)[C@H](Cc2ccccc2)NC(=O)[C@@H](NC(=O)CNC(=O)CN(CCN(CCN(CC(=O)O)CC(=O)O)CC(=O)O)CC(=O)O)CCNC(=O)CCCN(CC(N)=O)C(=O)[C@H](Cc2ccccc2)NC1=O | 86 |
| C[C@@H](O)[C@@H]1NC(=O)[C@H](CCCCN)NC(=O)[C@@H](Cc2c[nH]c3ccccc23)NC(=O)[C@H](Cc2c[nH]c3ccccc23)NC(=O)[C@H](Cc2ccccc2)NC(=O)[C@@H](NC(=O)CN(CCN(CCN(CC(=O)O)CC(=O)O)CC(=O)O)CC(=O)O)CCNC(=O)CCCN(CC(N)=O)C(=O)[C@H](Cc2ccccc2)NC1=O | 89 |
| C[C@@H](O)[C@@H]1NC(=O)[C@H](CCCCN)NC(=O)[C@@H](Cc2c[nH]c3ccccc23)NC(=O)[C@H](Cc2c[nH]c3ccccc23)NC(=O)[C@H](Cc2ccccc2)NC(=O)[C@@H](NC(=O)CCNC(=O)CN(CCN(CCN(CC(=O)O)CC(=O)O)CC(=O)O)CC(=O)O)CCNC(=O)CCCN(CC(N)=O)C(=O)[C@H](Cc2ccccc2)NC1=O | 78 |

Input line: For the molecule C[C@@H](O)[C@@H]1NC(=O)[C@H](CCCCN)NC(=O)[C@@H](Cc2c[nH]c3ccccc23)NC(=O)[C@H](Cc2c[nH]c3ccccc23)NC(=O)[C@H](Cc2ccccc2)NC(=O)[C@@H](NC(=O)CCCNC(=O)CN(CCN(CCN(CC(=O)O)CC(=O)O)CC(=O)O)CC(=O)O)CCNC(=O)CCCN(CC(N)=O)C(=O)[C@H](Cc2ccccc2)NC1=O , what inhibition at 0.1 µM is on record?
Output line: 76
